tested on: Pseudomonas aeruginosa; settings: Pseudomonas aeruginosa FADDI-PA025; broth microdilution in CAMHB
Positions of bridges follow the written chain, without caps; N, C: chain ends. Non-standard residues stand in square brackets, D forms with d. Residues, ends and D or L forms follow the SMILES beside them. *: point of attachment. Benzoyl(3,5-Cl2) = O=C(c1cc(Cl)cc(Cl)c1)*; Phenylacetyl(3-Cl) = O=C(Cc1cccc(Cl)c1)*; Benzoyl(2,3-Cl2) = O=C(c1cccc(Cl)c1Cl)*; Benzoyl(3-Cl) = O=C(c1cccc(Cl)c1)*; X23 = O=C(c1c(Cl)cc(Cl)cc1Cl)*; X3 = O=C(c1ccc(Cl)cc1Cl)*; Dab = NCC[C@H](N)C(=O)O; Abu = CC[C@H](N)C(=O)O; Dap = NC[C@H](N)C(=O)O
property_label: Minimum inhibitory concentration, Pa FADDI-PA025 (µg/mL)
Number in µg/mL, nothing else.

Below are worked cases with known answers.
compound | system_tested | units | quantitative_result
CC[C@@H]1NC(=O)[C@@H](CC(C)C)NC(=O)[C@H](CCN)NC(=O)[C@@H](NC(=O)[C@H](CN)NC(=O)[C@@H](NC(=O)[C@H](CCN)NC(=O)c2ccc(Cl)cc2Cl)[C@@H](C)O)CCNC(=O)[C@H]([C@@H](C)O)NC(=O)[C@H](CCN)NC(=O)[C@H](CCN)NC1=O [Compound 82] (X3-[Dab]T[Dap][Dab][Dab][dL][Abu][Dab][Dab]T; lactam 4-C) | Pseudomonas aeruginosa | µg/mL | 1
CC[C@@H]1NC(=O)[C@@H](CC(C)C)NC(=O)[C@H](CCN)NC(=O)[C@@H](NC(=O)[C@H](CN)NC(=O)[C@@H](NC(=O)[C@H](CCN)NC(=O)c2cccc(Cl)c2Cl)[C@@H](C)O)CCNC(=O)[C@H]([C@@H](C)O)NC(=O)[C@H](CCN)NC(=O)[C@H](CCN)NC1=O [Compound 90] ({Benzoyl(2,3-Cl2)}-[Dab]T[Dap][Dab][Dab][dL][Abu][Dab][Dab]T; lactam 4-C) | Pseudomonas aeruginosa | µg/mL | 2
CC[C@@H]1NC(=O)[C@@H](CC(C)C)NC(=O)[C@H](CCN)NC(=O)[C@@H](NC(=O)[C@H](CN)NC(=O)[C@@H](NC(=O)[C@H](CCN)NC(=O)c2cc(Cl)cc(Cl)c2)[C@@H](C)O)CCNC(=O)[C@H]([C@@H](C)O)NC(=O)[C@H](CCN)NC(=O)[C@H](CCN)NC1=O [Compound 96] ({Benzoyl(3,5-Cl2)}-[Dab]T[Dap][Dab][Dab][dL][Abu][Dab][Dab]T; lactam 4-C) | Pseudomonas aeruginosa | µg/mL | 0.5
CC[C@@H]1NC(=O)[C@@H](CC(C)C)NC(=O)[C@H](CCN)NC(=O)[C@@H](NC(=O)[C@H](CN)NC(=O)[C@@H](NC(=O)[C@H](CCN)NC(=O)c2c(Cl)cc(Cl)cc2Cl)[C@@H](C)O)CCNC(=O)[C@H]([C@@H](C)O)NC(=O)[C@H](CCN)NC(=O)[C@H](CCN)NC1=O [Compound 95] (X23-[Dab]T[Dap][Dab][Dab][dL][Abu][Dab][Dab]T; lactam 4-C) | Pseudomonas aeruginosa | µg/mL | 2
CC[C@@H]1NC(=O)[C@@H](CC(C)C)NC(=O)[C@H](CCN)NC(=O)[C@@H](NC(=O)[C@H](CN)NC(=O)[C@@H](NC(=O)[C@H](CCN)NC(=O)c2cccc(Cl)c2)[C@@H](C)O)CCNC(=O)[C@H]([C@@H](C)O)NC(=O)[C@H](CCN)NC(=O)[C@H](CCN)NC1=O [Compound 88] ({Benzoyl(3-Cl)}-[Dab]T[Dap][Dab][Dab][dL][Abu][Dab][Dab]T; lactam 4-C) | Pseudomonas aeruginosa | µg/mL | 2

Minimum inhibitory concentration, Pa FADDI-PA025 of CC[C@@H]1NC(=O)[C@@H](CC(C)C)NC(=O)[C@H](CCN)NC(=O)[C@@H](NC(=O)[C@H](CN)NC(=O)[C@@H](NC(=O)[C@H](CCN)NC(=O)Cc2cccc(Cl)c2)[C@@H](C)O)CCNC(=O)[C@H]([C@@H](C)O)NC(=O)[C@H](CCN)NC(=O)[C@H](CCN)NC1=O [Compound 79] ({Phenylacetyl(3-Cl)}-[Dab]T[Dap][Dab][Dab][dL][Abu][Dab][Dab]T; lactam 4-C) , assay on Pseudomonas aeruginosa, is 1

The compound CC(C)C[C@H]1NC(=O)[C@H](CCN)NC(=O)[C@@H](NC(=O)[C@H](CN)NC(=O)[C@@H](NC(=O)[C@H](CCN)NC(=O)c2cc(Cl)cc(Cl)c2)[C@@H](C)O)CCNC(=O)[C@H]([C@@H](C)O)NC(=O)[C@H](CCN)NC(=O)[C@H](CCN)NC(=O)[C@H]([C@@H](C)O)NC1=O [Compound 118] ({Benzoyl(3,5-Cl2)}-[Dab]T[Dap][Dab][Dab][dL]T[Dab][Dab]T; lactam 4-C) on Pseudomonas aeruginosa: Minimum inhibitory concentration, Pa FADDI-PA025 was 2

Values were extracted from patent USRE48335E1.
